System: CAL-51
Experiment: normalised viability (% of control), CellTiter-Blue; higher = more viable cells (100 = DMSO, 0 = benzethonium chloride kill control)
Conditions Used: 1 nM; incubation time: 72 h
Experimental Endpoint: normalised viability (%)
Numeric only. Scale: %

*Q* Need normalised viability, item N#Cc1ccc(C(c2ccc(C#N)cc2)n2cncn2)cc1
*A* 108

*Q* Need normalised viability, item Oc1ncc(N(CCCl)CCCl)c(O)n1
*A* 90.7

*Q* Need normalised viability, item CCc1cncnc1N1CCN(Cc2nc3ccc(C(F)(F)F)cc3[nH]2)CC1
*A* 90.8

*Q* Need normalised viability, item CC1=C(/C=C/C(C)=C/C=C/C(C)=C/C(=O)O)C(C)(C)CCC1
*A* 93.5

*Q* Need normalised viability, item COc1cc([C@@H]2c3cc4c(cc3[C@@H](O[C@@H]3O[C@@H]5CO[C@@H](c6cccs6)O[C@H]5[C@H](O)[C@H]3O)[C@H]3COC(=O)[C@H]23)OCO4)cc(OC)c1O [Teniposide]
*A* 105

*Q* Need normalised viability, item CC[C@H](Nc1ncnc2[nH]cnc12)c1nc2cccc(F)c2c(=O)n1-c1ccccc1
*A* 88.6

*Q* Need normalised viability, item CCCS(=O)(=O)Nc1ccc(F)c(C(=O)c2c[nH]c3ncc(-c4ccc(Cl)cc4)cc23)c1F
*A* 94.4

*Q* Need normalised viability, item Nc1ccccc1NC(=O)c1ccc(CNC(=O)OCc2cccnc2)cc1
*A* 110
